Entries annotated with measured normalized RNA/DNA level without ligand (log10)
B1: library; a variant is named by its letters at N, in order (parent)
chain: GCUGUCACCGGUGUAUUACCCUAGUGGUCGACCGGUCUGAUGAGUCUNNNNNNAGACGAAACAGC

Variants of: B1
Assay: normalized RNA/DNA level without ligand (relative to sTRSVctl = 100) (log10 (% of sTRSVctl)); ligand: hypoxanthine (xanthine aptamer); higher = less ribozyme self-cleavage, higher mRNA level
Conditions: HEK293T, reporter: mCherry (pCS4076), ligand present: no
readout-kind: normalized RNA/DNA level without ligand (log10)

sequence-text: GCUGUCACCGGUGUAUUACCCUAGUGGUCGACCGGUCUGAUGAGUCUCCCAGGAGACGAAACAGC [CCCAGG]
meas-value: 1.83

sequence-text: GCUGUCACCGGUGUAUUACCCUAGUGGUCGACCGGUCUGAUGAGUCUGGUAACAGACGAAACAGC [GGUAAC]
meas-value: 1.82

sequence-text: GCUGUCACCGGUGUAUUACCCUAGUGGUCGACCGGUCUGAUGAGUCUGUGAGAAGACGAAACAGC [GUGAGA]
meas-value: 1.57

sequence-text: GCUGUCACCGGUGUAUUACCCUAGUGGUCGACCGGUCUGAUGAGUCUGUGUCCAGACGAAACAGC [GUGUCC]
meas-value: 1.78

sequence-text: GCUGUCACCGGUGUAUUACCCUAGUGGUCGACCGGUCUGAUGAGUCUCAUCCUAGACGAAACAGC [CAUCCU]
meas-value: 1.94

sequence-text: GCUGUCACCGGUGUAUUACCCUAGUGGUCGACCGGUCUGAUGAGUCUUCGGCGAGACGAAACAGC [UCGGCG]
meas-value: 1.8

sequence-text: GCUGUCACCGGUGUAUUACCCUAGUGGUCGACCGGUCUGAUGAGUCUCCACGAAGACGAAACAGC [CCACGA]
meas-value: 1.88

sequence-text: GCUGUCACCGGUGUAUUACCCUAGUGGUCGACCGGUCUGAUGAGUCUGCGGCCAGACGAAACAGC [GCGGCC]
meas-value: 1.76

sequence-text: GCUGUCACCGGUGUAUUACCCUAGUGGUCGACCGGUCUGAUGAGUCUAGCCCUAGACGAAACAGC [AGCCCU]
meas-value: 1.93

sequence-text: GCUGUCACCGGUGUAUUACCCUAGUGGUCGACCGGUCUGAUGAGUCUCUGUGCAGACGAAACAGC [CUGUGC]
meas-value: 1.86

sequence-text: GCUGUCACCGGUGUAUUACCCUAGUGGUCGACCGGUCUGAUGAGUCUUUGGCUAGACGAAACAGC [UUGGCU]
meas-value: 1.99

sequence-text: GCUGUCACCGGUGUAUUACCCUAGUGGUCGACCGGUCUGAUGAGUCUACUAUAAGACGAAACAGC [ACUAUA]
meas-value: 1.82

sequence-text: GCUGUCACCGGUGUAUUACCCUAGUGGUCGACCGGUCUGAUGAGUCUCCUGGCAGACGAAACAGC [CCUGGC]
meas-value: 1.92

sequence-text: GCUGUCACCGGUGUAUUACCCUAGUGGUCGACCGGUCUGAUGAGUCUUAUAAGAGACGAAACAGC [UAUAAG]
meas-value: 1.61

sequence-text: GCUGUCACCGGUGUAUUACCCUAGUGGUCGACCGGUCUGAUGAGUCUCUGACCAGACGAAACAGC [CUGACC]
meas-value: 1.91

sequence-text: GCUGUCACCGGUGUAUUACCCUAGUGGUCGACCGGUCUGAUGAGUCUGAUUCGAGACGAAACAGC [GAUUCG]
meas-value: 1.54

sequence-text: GCUGUCACCGGUGUAUUACCCUAGUGGUCGACCGGUCUGAUGAGUCUCUACUCAGACGAAACAGC [CUACUC]
meas-value: 1.95

sequence-text: GCUGUCACCGGUGUAUUACCCUAGUGGUCGACCGGUCUGAUGAGUCUAAGUCUAGACGAAACAGC [AAGUCU]
meas-value: 1.84

sequence-text: GCUGUCACCGGUGUAUUACCCUAGUGGUCGACCGGUCUGAUGAGUCUCUCACGAGACGAAACAGC [CUCACG]
meas-value: 1.91

sequence-text: GCUGUCACCGGUGUAUUACCCUAGUGGUCGACCGGUCUGAUGAGUCUAAACGAAGACGAAACAGC [AAACGA]
meas-value: 1.63

sequence-text: GCUGUCACCGGUGUAUUACCCUAGUGGUCGACCGGUCUGAUGAGUCUGGGAACAGACGAAACAGC [GGGAAC]
meas-value: 1.72

sequence-text: GCUGUCACCGGUGUAUUACCCUAGUGGUCGACCGGUCUGAUGAGUCUCAAUAAAGACGAAACAGC [CAAUAA]
meas-value: 1.65

sequence-text: GCUGUCACCGGUGUAUUACCCUAGUGGUCGACCGGUCUGAUGAGUCUGUGGCCAGACGAAACAGC [GUGGCC]
meas-value: 1.88

sequence-text: GCUGUCACCGGUGUAUUACCCUAGUGGUCGACCGGUCUGAUGAGUCUUGGAGCAGACGAAACAGC [UGGAGC]
meas-value: 1.71

sequence-text: GCUGUCACCGGUGUAUUACCCUAGUGGUCGACCGGUCUGAUGAGUCUAUGCACAGACGAAACAGC [AUGCAC]
meas-value: 1.74

sequence-text: GCUGUCACCGGUGUAUUACCCUAGUGGUCGACCGGUCUGAUGAGUCUUUGCGCAGACGAAACAGC [UUGCGC]
meas-value: 1.91

sequence-text: GCUGUCACCGGUGUAUUACCCUAGUGGUCGACCGGUCUGAUGAGUCUUCUUUUAGACGAAACAGC [UCUUUU]
meas-value: 1.95

sequence-text: GCUGUCACCGGUGUAUUACCCUAGUGGUCGACCGGUCUGAUGAGUCUGAUAAGAGACGAAACAGC [GAUAAG]
meas-value: 1.36

sequence-text: GCUGUCACCGGUGUAUUACCCUAGUGGUCGACCGGUCUGAUGAGUCUCGAGUCAGACGAAACAGC [CGAGUC]
meas-value: 1.91

sequence-text: GCUGUCACCGGUGUAUUACCCUAGUGGUCGACCGGUCUGAUGAGUCUCGCUGGAGACGAAACAGC [CGCUGG]
meas-value: 1.42

sequence-text: GCUGUCACCGGUGUAUUACCCUAGUGGUCGACCGGUCUGAUGAGUCUCCCCGUAGACGAAACAGC [CCCCGU]
meas-value: 1.92

sequence-text: GCUGUCACCGGUGUAUUACCCUAGUGGUCGACCGGUCUGAUGAGUCUCUUGGUAGACGAAACAGC [CUUGGU]
meas-value: 1.95

sequence-text: GCUGUCACCGGUGUAUUACCCUAGUGGUCGACCGGUCUGAUGAGUCUACAGCCAGACGAAACAGC [ACAGCC]
meas-value: 1.92

sequence-text: GCUGUCACCGGUGUAUUACCCUAGUGGUCGACCGGUCUGAUGAGUCUCACGCUAGACGAAACAGC [CACGCU]
meas-value: 1.87

sequence-text: GCUGUCACCGGUGUAUUACCCUAGUGGUCGACCGGUCUGAUGAGUCUGACUCUAGACGAAACAGC [GACUCU]
meas-value: 1.93

sequence-text: GCUGUCACCGGUGUAUUACCCUAGUGGUCGACCGGUCUGAUGAGUCUAACAGCAGACGAAACAGC [AACAGC]
meas-value: 1.83

sequence-text: GCUGUCACCGGUGUAUUACCCUAGUGGUCGACCGGUCUGAUGAGUCUGUCAAGAGACGAAACAGC [GUCAAG]
meas-value: 1.46

sequence-text: GCUGUCACCGGUGUAUUACCCUAGUGGUCGACCGGUCUGAUGAGUCUUGACCUAGACGAAACAGC [UGACCU]
meas-value: 1.92

sequence-text: GCUGUCACCGGUGUAUUACCCUAGUGGUCGACCGGUCUGAUGAGUCUGUCCUGAGACGAAACAGC [GUCCUG]
meas-value: 1.52

sequence-text: GCUGUCACCGGUGUAUUACCCUAGUGGUCGACCGGUCUGAUGAGUCUAUAUAUAGACGAAACAGC [AUAUAU]
meas-value: 1.79

sequence-text: GCUGUCACCGGUGUAUUACCCUAGUGGUCGACCGGUCUGAUGAGUCUACCUCCAGACGAAACAGC [ACCUCC]
meas-value: 1.92

sequence-text: GCUGUCACCGGUGUAUUACCCUAGUGGUCGACCGGUCUGAUGAGUCUACCUACAGACGAAACAGC [ACCUAC]
meas-value: 1.85

sequence-text: GCUGUCACCGGUGUAUUACCCUAGUGGUCGACCGGUCUGAUGAGUCUAUAAAAAGACGAAACAGC [AUAAAA]
meas-value: 1.8

sequence-text: GCUGUCACCGGUGUAUUACCCUAGUGGUCGACCGGUCUGAUGAGUCUUGAGACAGACGAAACAGC [UGAGAC]
meas-value: 1.83

sequence-text: GCUGUCACCGGUGUAUUACCCUAGUGGUCGACCGGUCUGAUGAGUCUGUCUAAAGACGAAACAGC [GUCUAA]
meas-value: 1.8
